Provenance of the data: paper PMC8915582

Assay: Pharmacokinetic study in rats (oral and intravenous), filgotinib quantified from dried blood spots by LC-MS/MS
Format: in vivo
Conditions: male, Sprague Dawley, whole blood (dried blood spots); rat, oral, 10 mg/kg, DBS blood
Protocol: Freshly drawn rat blood was used to prepare the DBS cards. With the help of a calibrated pipette, 25 μL of the respective spiked CC/QC blood or whole blood collected from the pharmacokinetic study (post administration of filgotinib by intravenous and oral routes) was sampled on DBS card. Spiked cards were allowed to dry at ambient room temperature for 3 h and stored appropriately in a sealed bag with desiccant in a desiccator. […]
TEST READOUT: Cmax (ng/mL)
Value expressed in ng/mL; do not type the unit.

Qu. Specify measured Cmax for `O=C(Nc1nc2cccc(-c3ccc(CN4CCS(=O)(=O)CC4)cc3)n2n1)C1CC1` .
Ans. 804

====

Assay: Pharmacokinetic study in rats (oral and intravenous), filgotinib quantified from dried blood spots by LC-MS/MS
Type: in vivo
Conditions: male, Sprague Dawley, whole blood (dried blood spots); rat, oral, 10 mg/kg, DBS blood
TEST READOUT: Tmax (min)
Could you give me the number in min? Just the number is fine.

Qu. Look up and state reported Tmax for `O=C(Nc1nc2cccc(-c3ccc(CN4CCS(=O)(=O)CC4)cc3)n2n1)C1CC1`
Ans. 30

====

Test: Pharmacokinetic study in rats (oral and intravenous), filgotinib quantified from dried blood spots by LC-MS/MS
Type: in vivo
Conditions: male, Sprague Dawley, whole blood (dried blood spots); rat, intravenous, 2.0 mg/kg, DBS blood
Method: Freshly drawn rat blood was used to prepare the DBS cards. With the help of a calibrated pipette, 25 μL of the respective spiked CC/QC blood or whole blood collected from the pharmacokinetic study (post administration of filgotinib by intravenous and oral routes) was sampled on DBS card. Spiked cards were allowed to dry at ambient room temperature for 3 h and stored appropriately in a sealed bag with desiccant in a desiccator. […]
TEST READOUT: Vd
Just so you know, I need the unit written after the number.

Qu. Report Vd, nothing else, for this compound: O=C(Nc1nc2cccc(-c3ccc(CN4CCS(=O)(=O)CC4)cc3)n2n1)C1CC1 [filgotinib]
Ans. 4.17 L/kg

====

Test: Pharmacokinetic study in rats (oral and intravenous), filgotinib quantified from dried blood spots by LC-MS/MS
Format: in vivo
Settings: male, Sprague Dawley, whole blood (dried blood spots); rat, oral, 10 mg/kg, DBS blood
TEST READOUT: half-life (h)
Numbers only; they are read as h.

Qu. Tell me half-life reported for O=C(Nc1nc2cccc(-c3ccc(CN4CCS(=O)(=O)CC4)cc3)n2n1)C1CC1 [filgotinib]
Ans. 4.87

====

Test: Pharmacokinetic study in rats (oral and intravenous), filgotinib quantified from dried blood spots by LC-MS/MS
Assay type: in vivo
Conditions: male, Sprague Dawley, whole blood (dried blood spots); rat, oral 10 mg/kg vs intravenous 2.0 mg/kg, DBS blood; read-out: F (absolute oral bioavailability)
TEST READOUT: bioavailability (%)
Your answer is read as %, so omit the unit and give the number.

Qu. Please look at this molecule and report its bioavailability: O=C(Nc1nc2cccc(-c3ccc(CN4CCS(=O)(=O)CC4)cc3)n2n1)C1CC1 [filgotinib]
Ans. 42.5

====

Assay: Pharmacokinetic study in rats (oral and intravenous), filgotinib quantified from dried blood spots by LC-MS/MS
Format: in vivo
Conditions: male, Sprague Dawley, whole blood (dried blood spots); rat, intravenous, 2.0 mg/kg, DBS blood
TEST READOUT: half-life
The reply must contain the numeric value and, after it, the unit.

Qu. Entry `O=C(Nc1nc2cccc(-c3ccc(CN4CCS(=O)(=O)CC4)cc3)n2n1)C1CC1` needs its half-life filled in; supply it.
Ans. 3.52 h
